Tested on: LOX IMVI
Assay: NCI tumour cell line growth inhibition, 48 h
The source made the active and inactive calls. Rule as the data show it: active = GI50 up to about 1.1 µM and inactive = higher. Starred links: 1 amine or outer side, 2 acyl side, 3 side chain; linkers in the order of their positions; H or OH if unused. Positions of bridges follow the written chain, without caps; N, C: chain ends. Non-standard residues stand in square brackets, D forms with d. Residues, ends and D or L forms follow the SMILES beside them. Chains are numbered I, II in the order given. Actinocin(1to9) = Cc1c2oc3c(C)ccc(C(=O)[*:2])c3nc-2c(C(=O)[*:1])c(N)c1=O; NMeV = CN[CH](C(=O)O)C(C)C; Sar = CNCC(=O)O
Outcome codes: active, inactive

INSERT INTO measurements (molecule, classification) VALUES
  ('CC1(CCC(=O)OC2CCCCC2)OCCO1', 'inactive'),
  ('CC1(O)C=CC2CCC1C2O (stereo unspecified)', 'inactive'),
  ('C=CC1=CSNN1', 'inactive'),
  ('C/C(=N\NC(=S)NC(C)(C)C)c1ccccn1', 'active'),
  ('N#Cc1cc2cc3c4c(c2oc1=O)CCCN4CCC3', 'inactive'),
  ('O=C(O)/C=N/NC(=S)NC1CCCCC1', 'inactive'),
  ('O=C(c1ccccc1)c1ccc2cccc(OC3OC(CO)C(O)C(O)C3O)c2n1 (stereo unspecified)', 'inactive'),
  ('CCOC(=O)C(NC(=O)c1ccccc1)(Nc1cc(C)on1)C(F)(F)F (stereo unspecified)', 'inactive'),
  ('CCCCn1cnc2c(c(CC#N)nn2-c2ccccc2)c1=N', 'inactive'),
  ('Nc1ccn(CCCC(c2ccccc2)P(=O)(O)O)c(=O)n1 (stereo unspecified)', 'inactive'),
  ('Nc1cccc(CCN2CCN(CCCc3ccccc3)CC2)c1', 'inactive'),
  ('COC(=O)C1=Cc2cn(S(=O)(=O)c3ccc(C)cc3)c3cccc(c23)C(C=C(C)C)N1C(C)=O (stereo unspecified)', 'inactive'),
  ('CC1=C(Br)C(=O)C(C)=C(Br)C1=O.Cc1c(O)c(Br)c(C)c(O)c1Br', 'inactive'),
  ('O=NN(CCCl)C(=O)N[C@H]1CC[C@@H](CC(=O)O)CC1', 'inactive'),
  ('O=C1/C(=C/c2ccc(Cl)cc2)N=C(c2ccccc2)N1c1nc2ccccc2s1', 'inactive'),
  ('CC1=C(c2ccccc2)C(c2ccccc2)=C(c2ccccc2)C2(c3ccccc3)C(=O)C(C)CN12 (stereo unspecified)', 'inactive'),
  ('CCC(C)C1NC(=O)C(NC(=O)c2c3nc4c(C(=O)NC5C(=O)NC(C(C)CC)C(=O)N6CCCC6C(=O)N(C)CC(=O)N(C)C(C(C)C)C(=O)OC5C)ccc(C)c4oc-3c(C)c(=O)c2N)C(C)OC(=O)C(C(C)C)N(C)C(=O)CN(C)C(=O)C2CCCN2C1=O (stereo unspecified) (I: TIP[Sar][NMeV] / II: TIP[Sar][NMeV]; ester I:1-I:C, II:1-II:C; linker I:N-II:N via Actinocin(1to9); configuration not given here)', 'active'),
  ('C=C(C(=O)OC)N1C(=O)CC(C)C1=O (stereo unspecified)', 'inactive'),
  ('C=Cc1ccc(C)[n+](C[Si](C)(C)O[Si](C)(C)C)c1', 'inactive'),
  ('COC(OC)c1cccnc1C', 'inactive'),
  ('CCC(=O)O[C@@H]1C2C(OC(C)=O)C34COC(C)([C@@H]3C3C(C[C@]3(C)OC(C)=O)[C@@H](OC(=O)c3ccccc3)C4=O)[C@H](OC(C)=O)[C@@]2(OC(C)=O)C[C@@H]1C (stereo partly specified)', 'inactive');

====

Tested on: SK-OV-3
Assay: NCI tumour cell line growth inhibition, 48 h
Activity calls are given as the source filed them. Rule as the data show it: active = GI50 up to about 1.1 µM and inactive = higher.
Outcome codes: class 1 = active, class 0 = inactive

INSERT INTO results (molecule, classification) VALUES
  ('Cc1c(O)c(=O)ccn1C1OC(CO)C(O)C1O (stereo unspecified)', 'class 0'),
  ('COc1ccc(/C=C2\CCC(CN(C)C)C2=O)cc1 (stereo unspecified)', 'class 0'),
  ('c1ccc(N2N=C3N(c4ccccc4)C2N3c2ccccc2)cc1', 'class 0'),
  ('CC1=C(Cl)C[C@@H](/C(C)=C\Cl)O[C@@]1(O)C(Br)Br', 'class 0'),
  ('O=C1c2ccccc2C(=O)c2c(O)ccc(O)c21', 'class 0'),
  ('C=CCNC1=C2C[C@@H](C)C[C@@H](OC)[C@H](OC(=O)CN(C)C)[C@H](C)/C=C(\C)[C@@H](OC(N)=O)[C@H](OC)/C=C\C=C(/C)C(=O)NC(=CC1=O)C2=O', 'class 1'),
  ('OCCNc1nc2c(N3CCCC3)nc(N3CCNCC3)nc2nc1NCc1ccccc1', 'class 0'),
  ('O=C(NCc1ccccc1)c1cc2ccccc2o/c1=N\c1cccc(C(F)(F)F)c1', 'class 0'),
  ('COC(=O)[C@H](Cc1ccccc1)NC(=O)N(CCC#N)CCN(C(=O)N[C@@H](Cc1ccccc1)C(=O)OC)c1ccccc1', 'class 0'),
  ('Nc1nc2c(ncn2CC2CCC(CO)C2)c(=O)[nH]1 (stereo unspecified)', 'class 0'),
  ('CC(C)=c1sc(=C(C)C)c2c1=NC(C)(C)N=2', 'class 0');

====

Tested on: ACHN
Experiment: NCI tumour cell line growth inhibition, 48 h
Active and inactive are the calls of the source. No stated cut-off is given here; in the data, active = GI50 up to about 1.1 µM and inactive = higher.
Outcome codes: active, inactive

INSERT INTO results (molecule, classification) VALUES
  ('CCN1C(C)=NC2C(=O)c3ccccc3C(=O)C21 (stereo not given)', 'inactive'),
  ('C=C(C)CNCCN', 'inactive'),
  ('COC[C@@H]1Cc2cc(OC)c3c(c2[C@H](c2ccc(OC)c(OC)c2)[C@H]1COC)OCO3', 'inactive'),
  ('CC(C)(C)OC(=O)N1CCC[C@H]1CSC[C@@H]1CCCN1C(=O)OC(C)(C)C', 'inactive'),
  ('O=C(/C=C/C1C(=O)NC(=O)NC1=O)CC(=O)C(=O)Nc1cc(Cl)c(Cl)cc1Cl', 'inactive'),
  ('Cc1ccc(-n2cnc(C(=N)C#N)c2N)cc1', 'inactive'),
  ('CC(C)Oc1ccc(CNC2=NCCO2)c2ccccc12', 'inactive'),
  ('Cn1c(=S)[nH]c2sc3c(c2c1=O)CCSC3', 'inactive'),
  ('CC(=O)Nc1ccc2c3c(cc(O)c2c1)N(C(=O)CCCC(=O)N1CC(CCl)c2c1cc(O)c1cc(NC(C)=O)ccc21)CC3CCl (stereo not given)', 'active'),
  ('Cc1[nH]c2ncn3nc(C(Cl)(Cl)Cl)nc3c2c1Cc1ccccc1', 'inactive'),
  ('C=Cc1ccc(C)[n+](C[Si](C)(C)O[Si](C)(C)C)c1', 'inactive'),
  ('COc1cccc(C2C3=C(COC3=O)Oc3cc4c(cc32)OCO4)c1 (stereo not given)', 'active'),
  ('O=C(Nc1ccccc1)c1cccc([N+](=O)[O-])c1', 'inactive'),
  ('O=C(N/C(=C/c1cccc([N+](=O)[O-])c1)c1nc2cc(Cl)ccc2[nH]1)c1ccccc1', 'inactive'),
  ('COC(=O)C1=C(C)NC(CF)=C(C(=O)OC)C1c1cccc2c(=O)c3ccccc3oc12 (stereo not given)', 'inactive'),
  ('c1ccc(N2N=C3N(c4ccccc4)C2N3c2ccccc2)cc1', 'inactive'),
  ('O=c1n(-c2ccccc2)c(=O)n2c(-c3ccccc3)c(-c3ccccc3)n12', 'inactive'),
  ('Oc1ccc(C[C@@H]2CN[C@H](Cc3ccc(O)c(Br)c3)CN2)cc1', 'inactive'),
  ('CC(C)(C)/C(O)=C\c1nc2cc(C(F)(F)F)ccc2[nH]c1=O', 'inactive'),
  ('C=CCNC1=C2C[C@@H](C)C[C@@H](OC)[C@H](OC(=O)CN(C)C)[C@H](C)/C=C(\C)[C@@H](OC(N)=O)[C@H](OC)/C=C\C=C(/C)C(=O)NC(=CC1=O)C2=O', 'active');

====

System: EKVX
Assay: NCI tumour cell line growth inhibition, 48 h
Calls of active or inactive are those of the source. Cut-off read from the data, not from the text of the source: active = GI50 up to about 1.1 µM and inactive = higher.
readoutLabel: GI50

INSERT INTO results (compound, targetsystem, readoutlabel, measvalue) VALUES
  ('c1ccc(/N=c2\snc3scc(-c4ccccc4)n23)cc1', 'EKVX', 'GI50', '90.2 µM (inactive)'),
  ('COC(=O)/C(=N\O)C(C(=O)C=C(C)C)C(=O)C(=O)Nc1ccccc1C (stereo not drawn)', 'EKVX', 'GI50', '> 100 µM (inactive)'),
  ('C[C@]12CCC3[C@@H](CC[C@@H]4c5nonc5CC[C@]34C)C1CCC2=O (stereo partly drawn)', 'EKVX', 'GI50', '19.9 µM (inactive)');

====

System: DMS-114
Assay: NCI tumour cell line growth inhibition, 48 h
Activity calls are given as the source filed them. Cut-off read from the data, not from the text of the source: active = GI50 up to about 1.1 µM and inactive = higher.
The following compounds are listed with their measured GI50 values.
readoutLabel: GI50

INSERT INTO measurements (compound, measvalue) VALUES
  ('CCNC1=Nc2ccccc2-n2c(nn3nc4ccccc4c23)N1CC', '89.3 µM (inactive)'),
  ('O=S1(=O)NN=C(NCc2ccc(Cl)cc2)c2ccccc21', '> 100 µM (inactive)'),
  ('O=[N+]([O-])c1ccc(C2SCc3nc4ccccc4n32)cc1 (configuration not stated)', '35.1 µM (inactive)'),
  ('CCn1c2ccccc2c2ccc3c(c21)C(=O)C=CC3=O', '6.65 µM (inactive)'),
  ('CN1C(=O)CN2C(Cl)(Cl)C2(c2ccccc2F)c2cc([N+](=O)[O-])ccc21 (configuration not stated)', '42.8 µM (inactive)'),
  ('COC(=O)C1=Cc2cn(S(=O)(=O)c3ccc(C)cc3)c3cccc(c23)C(C=C(C)C)N1C(C)=O (configuration not stated)', '11.5 µM (inactive)'),
  ('COc1ccc(C2S/C(=C\c3ccc(O)cc3)C(=O)N2NC(=O)Cc2ccccc2)cc1 (configuration not stated)', '> 100 µM (inactive)');
